- Tested on: Escherichia coli TOP10
- ASSAY_PROTOCOL: shrunken log2 fold change of peptide-encoding DNA abundance (4.5 h post-induction vs induction); higher = less antimicrobial activity (less host growth inhibition)
- EXPERIMENTAL_CONTEXT: time post-induction: 4.5 h; library: site-saturation at positions 5, 18, 19, 20
READOUT_TYPE: shrunken log2 fold change
Give bare numbers.

Give measured shrunken log2 fold change for every item shown.
1. RRIRLRPPRLPRPRPRPCFDPRP
2. RRIRFRPPRLPRPRPRPEDSPRP
3. RRIRFRPPRLPRPRPRPTFAPRP
4. RRIRTRPPRLPRPRPRPTCVPRP
5. RRIRIRPPRLPRPRPRPDLNPRP
6. RRIRARPPRLPRPRPRPMFQPRP
7. RRIRARPPRLPRPRPRPWGAPRP

Result block:
[-0.293, -0.00878, 0.0698, -0.308, -0.211, -0.0957, 0.401]

Give measured shrunken log2 fold change for every item shown.
1. RRIRFRPPRLPRPRPRPKRWPRP
2. RRIRSRPPRLPRPRPRPPKNPRP
3. RRIRMRPPRLPRPRPRPTIMPRP
4. RRIRIRPPRLPRPRPRPGNDPRP
5. RRIRERPPRLPRPRPRPQFLPRP
6. RRIRDRPPRLPRPRPRPQTPPRP

Result block:
1. 0.0556
2. 0.223
3. 0.176
4. -0.0662
5. -0.571
6. 0.4

###

- Test system: Escherichia coli TOP10
- ASSAY_PROTOCOL: shrunken log2 fold change of peptide-encoding DNA abundance (4.5 h post-induction vs induction); higher = less antimicrobial activity (less host growth inhibition)
- EXPERIMENTAL_CONTEXT: time post-induction: 4.5 h; library: site-saturation at positions 5, 18, 19, 20
READOUT_TYPE: shrunken log2 fold change
Answers are plain numbers.

For orientation, consider the following solved cases.
- SEQUENCE: "RRIRQRPPRLPRPRPRPNMKPRP"
  shrunken log2 fold change: -0.336
- SEQUENCE: "RRIRSRPPRLPRPRPRPIACPRP"
  shrunken log2 fold change: 0.12
- SEQUENCE: "RRIRVRPPRLPRPRPRPQHLPRP"
  shrunken log2 fold change: -0.117
- SEQUENCE: "RRIRGRPPRLPRPRPRPYKVPRP"
  shrunken log2 fold change: -0.0404
- SEQUENCE: "RRIRYRPPRLPRPRPRPPAKPRP"
  shrunken log2 fold change: 0.441
- SEQUENCE: "RRIRCRPPRLPRPRPRPCWEPRP"
  shrunken log2 fold change: -0.0142

Give measured shrunken log2 fold change for every item shown.
1. RRIRPRPPRLPRPRPRPHIYPRP
2. RRIRNRPPRLPRPRPRPRAKPRP
3. RRIRHRPPRLPRPRPRPISIPRP
4. RRIRWRPPRLPRPRPRPLYPPRP
5. RRIRRRPPRLPRPRPRPVDDPRP
6. RRIRYRPPRLPRPRPRPRRPPRP
7. RRIRWRPPRLPRPRPRPPYGPRP

Result block:
1: -0.576; 2: 0.0711; 3: 0.0201; 4: -0.208; 5: -0.0484; 6: -0.0739; 7: -0.0783

Give measured shrunken log2 fold change for every item shown.
1. RRIRFRPPRLPRPRPRPVTTPRP
2. RRIRIRPPRLPRPRPRPGSDPRP

Result block:
1. 0.173
2. -0.209

###

- System: Escherichia coli TOP10
- ASSAY_PROTOCOL: shrunken log2 fold change of peptide-encoding DNA abundance (4.5 h post-induction vs induction); higher = less antimicrobial activity (less host growth inhibition)
- EXPERIMENTAL_CONTEXT: time post-induction: 4.5 h; library: site-saturation at positions 5, 18, 19, 20
READOUT_TYPE: shrunken log2 fold change
Give bare numbers.

For orientation, consider the following solved cases.
- SEQUENCE: "RRIRIRPPRLPRPRPRPDSSPRP"
  shrunken log2 fold change: -0.318
- SEQUENCE: "RRIRHRPPRLPRPRPRPHVAPRP"
  shrunken log2 fold change: -0.208
- SEQUENCE: "RRIRPRPPRLPRPRPRPTRFPRP"
  shrunken log2 fold change: 0.41
- SEQUENCE: "RRIRMRPPRLPRPRPRPKLCPRP"
  shrunken log2 fold change: 0.438
- SEQUENCE: "RRIRRRPPRLPRPRPRPRTAPRP"
  shrunken log2 fold change: 0.458
- SEQUENCE: "RRIRMRPPRLPRPRPRPANTPRP"
  shrunken log2 fold change: -0.0215

Give measured shrunken log2 fold change for every item shown.
1. RRIRHRPPRLPRPRPRPMYIPRP
2. RRIRDRPPRLPRPRPRPPACPRP
3. RRIRTRPPRLPRPRPRPCFYPRP
4. RRIRSRPPRLPRPRPRPHEVPRP
5. RRIRVRPPRLPRPRPRPGPNPRP
6. RRIRARPPRLPRPRPRPSDEPRP
7. RRIRFRPPRLPRPRPRPDECPRP

Result block:
1: -0.0294; 2: 0.0727; 3: -0.351; 4: -0.0564; 5: 0.0445; 6: 0.324; 7: -0.399

Give measured shrunken log2 fold change for every item shown.
1. RRIRSRPPRLPRPRPRPVECPRP
2. RRIRYRPPRLPRPRPRPNYAPRP

Result block:
[-0.0425, -0.223]

###

- Tested on: Escherichia coli TOP10
- ASSAY_PROTOCOL: shrunken log2 fold change of peptide-encoding DNA abundance (4.5 h post-induction vs induction); higher = less antimicrobial activity (less host growth inhibition)
- EXPERIMENTAL_CONTEXT: time post-induction: 4.5 h; library: site-saturation at positions 5, 18, 19, 20
Outcome: Y for shrunken log2 fold change of at least 0.1; N for anything lower.

Query block: Is the recorded value of shrunken log2 fold change equal to or greater than 0.1 for this sequence? RRIRQRPPRLPRPRPRPWYSPRP
Result block: N

Query block: // next record RRIRRRPPRLPRPRPRPVEWPRP
Result block: N

Query block: // next record RRIRRRPPRLPRPRPRPHKTPRP
Result block: Y

Query block: // next record RRIRIRPPRLPRPRPRPRRHPRP
Result block: N

Query block: // next record RRIRRRPPRLPRPRPRPIKRPRP
Result block: Y

Query block: // next record RRIRVRPPRLPRPRPRPGMCPRP
Result block: N

Query block: // next record RRIRVRPPRLPRPRPRPTWVPRP
Result block: Y

Query block: // next record RRIRRRPPRLPRPRPRPFPFPRP
Result block: N

###

- System: Escherichia coli TOP10
- ASSAY_PROTOCOL: shrunken log2 fold change of peptide-encoding DNA abundance (4.5 h post-induction vs induction); higher = less antimicrobial activity (less host growth inhibition)
- EXPERIMENTAL_CONTEXT: time post-induction: 4.5 h; library: site-saturation at positions 5, 18, 19, 20
// classify(record): look up shrunken log2 fold change in ranges range 1 = under -0.2, range 2 = from -0.2 up to 0.03, range 3 = 0.03 and over

Study these solved cases before continuing.
- SEQUENCE: "RRIRCRPPRLPRPRPRPTILPRP"
  ASSIGNED_LABEL: "range 1"
- SEQUENCE: "RRIRFRPPRLPRPRPRPYRKPRP"
  ASSIGNED_LABEL: "range 2"
- SEQUENCE: "RRIRTRPPRLPRPRPRPTMSPRP"
  ASSIGNED_LABEL: "range 2"
- SEQUENCE: "RRIRFRPPRLPRPRPRPMRKPRP"
  ASSIGNED_LABEL: "range 3"
- SEQUENCE: "RRIRCRPPRLPRPRPRPDIDPRP"
  ASSIGNED_LABEL: "range 2"
- SEQUENCE: "RRIRYRPPRLPRPRPRPLDFPRP"
  ASSIGNED_LABEL: "range 1"
- SEQUENCE: "RRIRSRPPRLPRPRPRPEHYPRP"
  ASSIGNED_LABEL: "range 2"
- SEQUENCE: "RRIRLRPPRLPRPRPRPVMLPRP"
  ASSIGNED_LABEL: "range 1"
- SEQUENCE: "RRIRIRPPRLPRPRPRPASSPRP"
  ASSIGNED_LABEL: "range 3"
- SEQUENCE: "RRIRGRPPRLPRPRPRPIFPPRP"
  ASSIGNED_LABEL: "range 3"

Query block: # bin lookup: classify RRIRFRPPRLPRPRPRPNADPRP by its shrunken log2 fold change
Result block: range 2

Query block: // next record RRIRERPPRLPRPRPRPQQRPRP
Result block: range 2

Query block: // next record RRIRKRPPRLPRPRPRPGALPRP
Result block: range 3

Query block: // next record RRIRPRPPRLPRPRPRPIVFPRP
Result block: range 1

###

Hi there, I'd appreciate the recorded shrunken log2 fold change for every entry that follows.
- Tested on: Escherichia coli TOP10;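 further: peptides expressed intracellularly from a pBAD plasmid library in pooled LB shake-flask culture, induced with 0.3% L-arabinose, DNA abundance read by NGS, three biological replicates, DESeq2 with apeglm shrinkage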
- ASSAY_PROTOCOL: shrunken log2 fold change of peptide-encoding DNA abundance (4.5 h post-induction vs induction); higher = less antimicrobial activity (less host growth inhibition)
- EXPERIMENTAL_CONTEXT: time post-induction: 4.5 h; library: site-saturation at positions 5, 18, 19, 20
Answers are plain numbers.

For orientation, consider the following solved cases.
- SEQUENCE: "RRIRNRPPRLPRPRPRPYQCPRP"
  shrunken log2 fold change: -0.00804
- SEQUENCE: "RRIRMRPPRLPRPRPRPQLDPRP"
  shrunken log2 fold change: 0.277
- SEQUENCE: "RRIRERPPRLPRPRPRPWDEPRP"
  shrunken log2 fold change: 0.0271
- SEQUENCE: "RRIRKRPPRLPRPRPRPPQYPRP"
  shrunken log2 fold change: 0.277
- SEQUENCE: "RRIRARPPRLPRPRPRPAKCPRP"
  shrunken log2 fold change: "-6.11e-05"

Give measured shrunken log2 fold change for every item shown.
1. RRIRQRPPRLPRPRPRPGADPRP
2. RRIRARPPRLPRPRPRPAAFPRP
3. RRIRPRPPRLPRPRPRPEPIPRP
4. RRIRIRPPRLPRPRPRPPEHPRP
5. RRIRVRPPRLPRPRPRPGIHPRP
6. RRIRWRPPRLPRPRPRPRGIPRP
7. RRIRARPPRLPRPRPRPSWDPRP

Result block:
1: 0.47; 2: 0.787; 3: 0.26; 4: -0.037; 5: -0.118; 6: 0.234; 7: 0.244

Give measured shrunken log2 fold change for every item shown.
1. RRIRFRPPRLPRPRPRPHYWPRP
2. RRIRFRPPRLPRPRPRPYQVPRP
3. RRIRQRPPRLPRPRPRPAWSPRP
4. RRIRYRPPRLPRPRPRPLYRPRP
5. RRIRLRPPRLPRPRPRPEPQPRP
6. RRIRMRPPRLPRPRPRPAGYPRP

Result block:
[-0.505, -0.153, 0.183, -0.335, 0.728, 0.572]

Give measured shrunken log2 fold change for every item shown.
1. RRIRQRPPRLPRPRPRPVVGPRP
2. RRIRWRPPRLPRPRPRPSHEPRP
3. RRIRERPPRLPRPRPRPGFHPRP
4. RRIRTRPPRLPRPRPRPLWHPRP
5. RRIRCRPPRLPRPRPRPPVMPRP
6. RRIRQRPPRLPRPRPRPDESPRP
7. RRIRKRPPRLPRPRPRPIIHPRP
8. RRIRVRPPRLPRPRPRPIMMPRP

Result block:
0.101
0.0227
-0.277
-0.221
0.298
0.0454
-0.0792
-0.0138

Give measured shrunken log2 fold change for every item shown.
1. RRIRWRPPRLPRPRPRPHFHPRP
2. RRIRHRPPRLPRPRPRPGDVPRP
3. RRIRLRPPRLPRPRPRPDDMPRP
4. RRIRNRPPRLPRPRPRPGCGPRP
5. RRIRDRPPRLPRPRPRPEKMPRP
6. RRIRYRPPRLPRPRPRPVTCPRP

Result block:
[-0.596, -0.16, 0.0411, 0.451, -0.00458, -0.0508]

Cited source for all entries: the supplement of paper PMC9112550
